These measurements were taken from patent US20070088033A1.

# assay system: human p38 kinase alpha (Homo sapiens)
# Construct: The coding region of the human p38 cDNA was obtained by PCR-amplification from RNA isolated from the human monocyte cell line THP.1; GST (N); made in house; host or cells: E. coli DH10B
# Sequence (Q16539 whole entry): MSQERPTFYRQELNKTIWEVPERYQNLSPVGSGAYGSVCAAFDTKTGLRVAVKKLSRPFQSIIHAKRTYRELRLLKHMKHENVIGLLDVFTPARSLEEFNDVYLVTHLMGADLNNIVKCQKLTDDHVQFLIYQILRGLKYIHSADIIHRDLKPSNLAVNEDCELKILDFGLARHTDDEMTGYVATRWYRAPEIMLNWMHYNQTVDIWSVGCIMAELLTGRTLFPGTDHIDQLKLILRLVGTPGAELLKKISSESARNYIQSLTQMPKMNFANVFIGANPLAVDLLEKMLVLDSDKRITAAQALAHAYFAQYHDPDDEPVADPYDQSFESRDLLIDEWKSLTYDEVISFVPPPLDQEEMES
# protocol description: p38 kinase in vitro assay
# Assay type: biochemical
# recorded conditions: Table II; several values in a cell = repeat determinations; read-out: p38A
Provide the reported IC50 of each item.
Numbers only; they are read as µM.

Item under review: `O=c1c(Br)c(OCc2ccc(Cl)cc2)ccn1CCSc1ccccc1` . Reported IC50?
56.5

GET /values?readout=IC50&item= `O=c1cc(OCc2ccccc2)ccn1Cc1ccc(Cl)cc1`
31.9

Any idea what its IC50 is? The compound is `O=c1c(Br)c(OCc2ccccc2)ccn1CC1CCNCC1`
90.9

# lookup: IC50 of `Cc1c(Br)c(OCc2ccccc2)c(Br)c(=O)n1Cc1ccccc1`
41.6

If you can, please state the reported IC50 value of `O=c1cc(OCc2ccccc2)ccn1Cc1ccc(F)cc1` .
64.8

Which measured IC50 value corresponds to `O=c1c(Br)c(OCc2ccc(F)cc2)ccn1CCCc1ccccc1` ?
18

What does the data say about its IC50? Entry: `O=c1c(Br)c(OCc2ccccc2)ccn1Cc1cccc(C(F)(F)F)c1`
9.86

Give the measured IC50 of `O=c1cc(OCc2cccc(Cl)c2)ccn1Cc1ccccc1` .
51.5

What does the data say about its IC50? Entry: `O=c1c(Br)c(OCc2ccccc2C(F)(F)F)ccn1Cc1ccccc1`
77.6

What IC50 value was documented for this compound, `O=c1c(Br)c(OCc2c(Cl)cccc2Cl)ccn1Cc1ccccc1` ?
14.3

// returns reported IC50 for input `O=c1c(Br)c(OCc2ccccc2)ccn1Cc1ccc(OCc2ccccc2)cc1`
1.45

GET /values?readout=IC50&item= `O=c1c(Br)c(OCc2ccc(Cl)cc2)ccn1Cc1ccccc1`
1.38

If you can, please state the reported IC50 value of `O=c1c(Br)c(SCc2ccccc2)ccn1Cc1ccccc1` .
3.6

Requested read-out: IC50. Entry: `Cc1cc(OCc2ccccc2)c(Br)c(=O)n1Cc1ccccc1`
0.219

Name the reported IC50 value associated with the compound `O=c1c(Br)c(OCc2ccccc2Cl)ccn1Cc1ccccc1`
2.03
